Reference for the values: paper PMC6608564

test: Pharmacokinetic measurement by mass spectrometry in mice; assay type: in vivo, C57BL/6 mice; settings: C57BL/6, mouse, plasma, ip, 1 mg/kg
readout_kind: Tmax

Q: Recorded Tmax of CC[C@H](C)[C@@H]1NC(=O)[C@H](Cc2ccc(O)cc2)NC(=O)[C@@H](N)CSSC[C@@H](C(=O)N2CCC[C@H]2C(=O)N[C@@H](CC(C)C)C(=O)NCC(N)=O)NC(=O)[C@H](CC(N)=O)NC(=O)[C@H](CCC(N)=O)NC1=O , please.
Ans: ~30 min

====

assay: Pharmacokinetic measurement by mass spectrometry in mice; type: in vivo, C57BL/6 mice; details: C57BL/6, mouse, plasma, ip, 1 mg/kg
readout_kind: half-life

Q: Recorded half-life of CC[C@H](C)[C@@H]1NC(=O)[C@H](Cc2ccc(O)cc2)NC(=O)[C@@H](N)CSSC[C@@H](C(=O)N2CCC[C@H]2C(=O)N[C@@H](CC(C)C)C(=O)NCC(N)=O)NC(=O)[C@H](CC(N)=O)NC(=O)[C@H](CCC(N)=O)NC1=O , please.
Ans: < 30 min
